Source of measurements: patent US20240043542A1

# TARGET_DESC: T1, human B7-H4 on the cell surface (human, UniProt Q7Z7D3 25-282)
# T1 sequence: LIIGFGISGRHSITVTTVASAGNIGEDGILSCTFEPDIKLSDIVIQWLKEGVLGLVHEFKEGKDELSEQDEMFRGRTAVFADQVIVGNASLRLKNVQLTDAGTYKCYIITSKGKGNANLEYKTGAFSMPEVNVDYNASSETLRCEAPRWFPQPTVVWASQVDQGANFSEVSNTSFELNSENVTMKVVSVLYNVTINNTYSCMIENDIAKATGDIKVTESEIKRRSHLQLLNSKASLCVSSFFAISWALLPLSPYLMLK
# EXPERIMENT_NOTES: cell-based or functional assay
METRIC_NAME: Donor 4 Max IFNγ (pg/mL)
One number for each entry, in pg/mL.

The recorded Donor 4 Max IFNγ for B7-H4 antibody 20502.1 (antibody, human IgG1, kappa, V domains shown, human IgG1/kappa) VH: QLQLQESGPGLVKPSETLSLTCTVSGGSIKSGSYYWGWIRQPPGKGLEWIGNIYYSGSTYYNPSLKSRVTISVDTSKNQFSLKLSSVTAADTAVYYCAREGSYPNQFDPWGQGILVTVSS VL: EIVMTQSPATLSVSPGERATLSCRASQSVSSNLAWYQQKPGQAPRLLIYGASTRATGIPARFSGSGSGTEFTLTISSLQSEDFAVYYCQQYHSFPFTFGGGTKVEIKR is 4270
